# Tested on: NCI-H460 lung
# MEASUREMENT_NOTES: NCI tumour cell line growth inhibition, 48 h
ASSAY_READOUT: TGI

Please review the entries below; each comes with its answer.
O=C(CC(=O)N1N=C(c2ccccc2)C(N=Nc2ccc(Cl)cc2)C1=O)Nc1ccccc1Cl (stereo unspecified) :: > 100 µM
Nc1ccc(C(=O)Nn2c(-c3ccccc3)nc3ccccc3c2=O)cc1 :: > 100 µM
CSc1nc(NC2OC(COC(C)=O)C(OC(C)=O)C(OC(C)=O)C2OC(C)=O)c2c(OC(C)=O)c(C)c(=O)oc2n1 (stereo unspecified) :: > 100 µM
O=C(CSc1nnc(Cc2ccccc2)o1)Nc1cccc([N+](=O)[O-])c1 :: > 100 µM
S=C(/N=c1/sc(Nc2ccccc2)nc2sc3c(c12)CCCC3)Nc1ccccc1 :: > 62.5 µM

In: Query: TGI; subject: CC(=O)SCCC1c2[nH]c3ccccc3c2CCN1O (stereo unspecified)
Out: > 100 µM

In: Which TGI is listed for "COc1ccc(OC)c2c1C(=O)C(Cl)=C(N1CCN(CCOCCO)CC1)C2=O" ?
Out: 38 µM

In: What does the data say about its TGI? Entry: "CCOC(=O)C(=C(SC)SC)c1nn2c(=O)cc(C)nc2s1"
Out: 60.7 µM

In: Requested read-out: TGI. Entry: "N#CC1=C(N2CCCC2)NC(=O)CC1=O"
Out: > 100 µM

In: Quick one: TGI of "CO/N=C(\C(=O)Nc1cncs1)c1csc(NC(c2ccccc2)(c2ccccc2)c2ccccc2)n1" ?
Out: > 10 µM

In: Fill in: TGI of "Oc1ccc2ccccc2c1N=Nc1ccc(F)cc1" is ___
Out: > 100 µM

###

# TGI per record follows
# Tested on: PC-3 prostate
# MEASUREMENT_NOTES: NCI tumour cell line growth inhibition, 48 h

C1=C2C3=[N+](CCCC3)CC2Cc2ccsc21 (stereo not given) :: > 100 µM
O=C1NNC(=O)C2C3c4ccccc4C(c4ccccc43)C12 (stereo not given) :: > 100 µM
COc1ccc(C2CC(=O)c3c(OC)cc(OC)cc3O2)cc1 (stereo not given) :: > 100 µM
CSc1nc(Cl)c2c(n1)Sc1nc3cc4c(cc3n1C2O)OCO4 (stereo not given) :: > 60.3 µM
CC[C@H](C)[C@H](NC(=O)[C@H]1CCCCN1C)C(=O)N(C)[C@H](CCc1nc(C(=O)N[C@@H](Cc2ccccc2)C[C@H](C)C(=O)OC)cs1)C(C)C :: > 25 µM

In: Find the recorded TGI belonging to COC1(OC)C2(Cl)CCC1(Cl)C(OC(C)=O)C2 (stereo not given) and report it.
Out: > 100 µM

In: // query TGI value for entry CSc1ccc(C2C(Cl)C(=O)N2NC(=O)c2c(Cl)c(Cl)c(Cl)c(Cl)c2-c2nc3ccccc3[nH]2)cc1 (stereo not given)
Out: 45.8 µM

In: Quick one: TGI for "COc1ccc(-c2c(C#N)c(NC(=S)NC(=O)c3ccccc3)nc3c2CCCC3)cc1OC" ?
Out: > 100 µM

In: Name the reported TGI value associated with the molecule "S=C(/N=c1/sc(Nc2ccccc2)nc2sc3c(c12)CCCC3)Nc1ccccc1"
Out: > 62.5 µM

In: Suppose we examine the molecule "c1ccc2c(c1)nc1n2CNCC1" ; what TGI value has been reported?
Out: > 100 µM

These measurements were taken from PubChem BioAssay (NCI).
